Target: T1, human MIC-1 receptor (hGFRAL, GDNF family receptor alpha like) (human, UniProt Q6UXV0 19-394)
T1 sequence (looked up): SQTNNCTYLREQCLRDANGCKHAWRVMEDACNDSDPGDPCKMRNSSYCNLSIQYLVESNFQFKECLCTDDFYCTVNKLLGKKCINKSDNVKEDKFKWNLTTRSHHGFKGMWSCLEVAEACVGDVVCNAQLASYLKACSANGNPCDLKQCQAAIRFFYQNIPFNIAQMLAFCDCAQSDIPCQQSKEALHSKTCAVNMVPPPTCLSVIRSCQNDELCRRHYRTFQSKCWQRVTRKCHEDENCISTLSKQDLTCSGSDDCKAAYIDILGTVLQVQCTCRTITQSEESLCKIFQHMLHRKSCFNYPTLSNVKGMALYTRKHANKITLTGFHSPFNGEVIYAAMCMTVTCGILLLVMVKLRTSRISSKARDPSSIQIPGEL
Test: cell-based or functional assay
Please go through the items and note down their pERK EC50 (nM).
Answers are plain numbers, in nM.

Recorded pERK EC50 (nM), per entry:
binder | unit-label | assay-result
MIC-1(R2A, N3E, A54E) (ligand) AAEGDHCPLGPGRCCRLHTVRASLEDLGWADWVLSPREVQVTMCIGACPSQFREANMHAQIKTSLHRLKPDTVPAPCCVPASYNPMVLIQKTDTGVSLQTYDDLLAKDCHCI | nM | 0.3
(AEE)3AES-MIC-1-Δ1-3 (ligand) AEEAEEAEEAESGDHCPLGPGRCCRLHTVRASLEDLGWADWVLSPREVQVTMCIGACPSQFRAANMHAQIKTSLHRLKPDTVPAPCCVPASYNPMVLIQKTDTGVSLQTYDDLLAKDCHCI | nM | 0.5
(AEE)2AES-MIC-1-Δ1-3 (ligand) AEEAEEAESGDHCPLGPGRCCRLHTVRASLEDLGWADWVLSPREVQVTMCIGACPSQFRAANMHAQIKTSLHRLKPDTVPAPCCVPASYNPMVLIQKTDTGVSLQTYDDLLAKDCHCI | nM | 0.4

Could you tell me which pERK EC50 (nM) is on file for …-MIC-1-Δ1-3 (ligand) SEPATSGSETPGTSTEPSEGSAPGGDHCPLGPGRCCRLHTVRASLEDLGWADWVLSPREVQVTMCIGACPSQFRAANMHAQIKTSLHRLKPDTVPAPCCVPASYNPMVLIQKTDTGVSLQTYDDLLAKDCHCI ? 0.7
